Below, each entry is listed alongside its reported pKi.
Biological target: T1, human IL4Rα/Fc (R and D Systems 604-4R) (human, UniProt P24394 26-231, limits assumed, biotin labelled in the assay of Example 5)
T1 construct: bought protein; also called IL-4Rα/Fc (R&D systems Cat. No. 604-4R-050); not shown: Fc part of the bought fusion
T1 sequence (looked up): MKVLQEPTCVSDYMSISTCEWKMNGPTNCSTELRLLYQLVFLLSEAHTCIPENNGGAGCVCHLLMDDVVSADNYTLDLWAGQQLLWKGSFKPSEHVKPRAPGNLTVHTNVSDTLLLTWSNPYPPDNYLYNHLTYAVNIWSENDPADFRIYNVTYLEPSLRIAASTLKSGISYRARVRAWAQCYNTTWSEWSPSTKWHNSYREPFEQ
Test: HTRF receptor-ligand assay, purified scFv against biotinylated human IL4
pKi: −log10 of the molar value.
observationType: pKi

[
  {
    "binder": "Antibody 24 scFv (scFv, V domains shown, tested as purified scFv) VH: QVQLVQSGAEVKKPGASVKVSCKASGYAFTSYYMHWARQAPGQGLEWMGIINPRGGSTSYAQKFQGRVTMTRDTSTSTVYMELSSLRSEDTAVYYCARGKYWMYDWGKGTLVTVSS VL: QSVLTQPPSVSAAPGQKVTISCSGGSSNIGNSYVSWYQQLPGTAPKLLIYDNNKRPSGIPDRFSGSKSGTSATLAITGLQTGDEADYFCGTWDTSTVWEWPFGTGTKLTVL",
    "observationType": "pKi",
    "observedResult": 10.31
  },
  {
    "binder": "Antibody 24PGL scFv (scFv, V domains shown, tested as purified scFv) VH: QVQLVQSGAEVKKPGASVKVSCKASGYAFTSYYMHWVRQAPGQGLEWMGIINPRGGSTSYAQKFQGRVTMTRDTSTSTVYMELSSLRSEDTAVYYCARGKYWMYDWGKGTLVTVSS VL: QSVLTQPPSVSAAPGQKVTISCSGGSSNIGNSYVSWYQQLPGTAPKLLIYDNNKRPSGIPDRFSGSKSGTSATLGITGLQTGDEADYFCGTWDTSTVWEWPFGTGTKLTVL",
    "observationType": "pKi",
    "observedResult": 10.19
  },
  {
    "binder": "Antibody 32 scFv (scFv, V domains shown, tested as purified scFv) VH: QVQLVQSGAEVKKPGASVKVSCKASGYAFTSYYMHWARQAPGQGLEWMGIINPSGGSTSYAQKFQGRVTMTRDTSTSTVYMELSSLRSEDTAVYYCARGKYWMYDWGKGTLVTVSS VL: QSVLTQPPSVSAAPGQKVTISCSGGSSNIGNSYVSWYQQLPGTAPKLLIYDNNKRPSGIPDRFSGSKSGTSATLAITGLQTGDEADYFCGTWDTSTAWEWPFGTGTKLTVL",
    "observationType": "pKi",
    "observedResult": 10.12
  },
  {
    "binder": "Antibody 6 scFv (scFv, V domains shown, tested as purified scFv) VH: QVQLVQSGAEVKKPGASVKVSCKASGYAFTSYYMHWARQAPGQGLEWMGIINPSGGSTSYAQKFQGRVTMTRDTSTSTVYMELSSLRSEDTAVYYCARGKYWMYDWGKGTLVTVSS VL: QSVLTQPPSVSAAPGQKVTISCSGGSSNIGNSYVSWYQQLPGTAPKLLIYDNNKRPSGIPDRFSGSKSGTSATLAITGLQTGDEADYYCGTWDTSTTYHPIFGTGTKLTVL",
    "observationType": "pKi",
    "observedResult": 9.52
  },
  {
    "binder": "Antibody 25 scFv (scFv, V domains shown, tested as purified scFv) VH: QVQLVQSGAEVKKPGASVKVSCKASGYAFTSYYMHWARQAPGQGLEWMGIINPRGGSASYAQKFQGRVSMTRDTSTSTVYMELSSLRSEDTAVYYCARGKYWMYDWGKGTLVTVSS VL: QSVLTQPPSVSAAPGQKVTISCSGGSSNIGNSYVSWYQQLPGTAPKLLIYDNNKRPSGIPDRFSGSKSGTTATLAITGLQTGDEADYYCGTWVTSTVWEWPFGTGTKLTVL",
    "observationType": "pKi",
    "observedResult": 10.41
  }
]
